experimental_system: Neuropeptides B/W receptor type 1 (Homo sapiens) (UniProt P48145)
Sequence (P48145 whole entry, looked up): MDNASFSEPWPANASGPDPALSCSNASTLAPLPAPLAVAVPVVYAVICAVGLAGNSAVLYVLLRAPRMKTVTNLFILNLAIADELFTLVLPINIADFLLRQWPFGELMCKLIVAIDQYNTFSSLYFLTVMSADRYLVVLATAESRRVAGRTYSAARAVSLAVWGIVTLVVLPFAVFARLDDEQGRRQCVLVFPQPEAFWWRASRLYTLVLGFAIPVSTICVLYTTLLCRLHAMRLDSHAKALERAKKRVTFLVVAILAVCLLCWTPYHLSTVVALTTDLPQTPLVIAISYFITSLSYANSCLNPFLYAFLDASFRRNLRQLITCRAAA
procedure_details: GPR7 receptor antagonists, primary screen, cell-based, fluorescence, single concentration (AID 1861);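 also: cells stimulated with the agonist NPW; 0% = agonist with vehicle and 100% = vehicle without agonist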
experimental_parameters: GPR7-expressing cells, fluorescence antagonist assay; at 4.4 µM; stronger effect = higher value
The campaign covered roughly 290,000 compounds. About 3,100 (1.1%) were called active. Many of the other results were omitted from the sample, so actives are more common in it than they were.
Given measured inhibition, output class 1 if it is greater than or equal to 20% and class 0 if not.

hey, is inhibition for this one >= 20%? CCOC(=O)C1=C(C)NC(C)=C(C(=O)OCC)C1c1ccccn1
class 0

Could you verify whether the entry O=C(/C=C/c1cccc([N+](=O)[O-])c1)N1CCN(Cc2ccccc2)CC1 shows inhibition of no less than 20%?
class 1

Can Cc1nn(CC(=O)NCC2CCCO2)c(=O)c2cc3ccccc3n12 (stereo unspecified) be said to have inhibition at or above 20%?
class 0

# bool: inhibition of Cc1ccc(NC2=C(Cl)C(=O)OC2OC(=O)c2ccccc2C)cc1 (stereo unspecified) >= 20%
class 1

Is the recorded value of inhibition equal to or greater than 20% for this molecule? CC1CCCCN1CC(=O)NCc1ccc2c(c1)OCO2 (stereo unspecified)
class 0

// inclusive: inhibition at least 20%? input: CCN(CC)c1ccc(C2C3CCCCC3(O)CCN2CC(=O)Nc2ccccc2)cc1 (stereo unspecified)
class 0

----------
experimental_system: Neuropeptides B/W receptor type 1 (Homo sapiens) (UniProt P48145)
procedure_details: GPR7 receptor antagonists, primary screen, cell-based, fluorescence, single concentration (AID 1861);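 also: cells stimulated with the agonist NPW; 0% = agonist with vehicle and 100% = vehicle without agonist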
experimental_parameters: GPR7-expressing cells, fluorescence antagonist assay; at 4.4 µM; stronger effect = higher value
In all, about 290,000 compounds went through this assay and about 3,100 (1.1%) were called active. The full list was thinned out, with actives kept by preference.
Consider the following compounds; for each one, report its inhibition.
Report the figure in % without appending any unit label.

// inhibition lookup, key: CCOc1ccc(N=C2SC(C(=O)O)CC(=O)N2C)cc1 (centres undefined)
-6.69

Reported inhibition, compound CC1C(=O)Nc2ccccc2N1C(=O)c1c(F)cccc1F (centres undefined) : ____
-14.5

Data request, read-out inhibition, for Cc1ccc(CNCc2ccc3c(c2)OCO3)c(C)c1
-3.64

Which value of inhibition has been reported for COc1ccc(S(=O)(=O)NCCc2c[nH]c3ccccc23)cc1OC in the records?
-6.73

Data request, read-out inhibition, for Cc1ccc(-c2c[n+](CC(=O)Nc3ccccc3)c3n2CCC3)cc1
-3.52

Give the measured inhibition of COc1ccc(C)cc1NC(=O)Nc1ccccc1SC .
-7.07

Quick check: inhibition of COc1ccc(OCC(O)CNCCNc2nccc(C(F)(F)F)n2)cc1 (centres undefined) ?
-3.59

Please give the measured inhibition for this compound: Cc1cc(-n2nc(C)cc2C)n2nc(C)c(-c3ccccc3)c2n1
-6.35

I'd like to know its inhibition. The compound in question is O=C(Nc1cccc2ccccc12)c1onc2c1CCCC2
-5.72

Endpoint output: inhibition of COc1ccc(C)cc1NC(=O)NCc1ccccn1 . Value?
-18.5

I'd like to know its inhibition. The compound in question is COc1cc(OC)c(-n2c(C)cc(C=O)c2C)cc1Cl
-3.29

What does the data say about its inhibition? Entry: OC(COc1ccc(Br)cc1)CN1CCCC1 (centres undefined)
-9.13

// query inhibition value for entry COc1ccc(NS(=O)(=O)c2ccc(NC(=O)c3ccc(N(C)S(C)(=O)=O)cc3)cc2)cc1
22.9

Endpoint output: inhibition of COc1cc(C(=O)NCc2cc3cc(Cl)ccc3n2C)cc(OC)c1OC . Value?
-5.99

Query: inhibition; subject: COc1cc(OC)cc(C(=O)Nc2ccc(S(=O)(=O)Nc3cc(C)on3)cc2)c1
-3.8

Which inhibition is reported for this compound? CCc1ccc(OCC(O)CN2CCN(CCO)CC2)cc1 (centres undefined)
-19.8

Can you share its inhibition? I mean this compound: CCNC(=O)c1cnn(-c2ccccc2)c1-c1ccccc1
-4.37

Query: inhibition; subject: COc1ccc(NC(=O)c2cnc(NS(=O)(=O)c3ccccc3)nc2)cc1
-10.5

// inhibition lookup, key: COc1ccc(C)cc1NC(=O)NCCCCc1ccccc1
28.4

Which inhibition reading was recorded for the compound COc1cccc(C(=O)NNC(=O)c2cccc(F)c2)c1 ?
-2.7

Can you look up the measured inhibition of COC(=O)CCC(=O)N1CCCC(CO)(Cc2ccccc2)C1 (centres undefined) for me?
-0.55

Reported inhibition, compound Oc1ccccc1-c1cc(-c2ccc(Cl)cc2)n[nH]1 : ____
-4.03

Can you look up the measured inhibition of COc1cc(NS(=O)(=O)c2ccc(NC(C)=O)cc2)cc(OC)c1 for me?
-5.8

Give its inhibition value. Item: O=C(NC(=O)c1ccccc1)Nc1ccccc1O
40.9
